Measured self-cleavage kobs at 10000 uM GlcN6P by item
B1: glmS ribozyme (parent)
chain: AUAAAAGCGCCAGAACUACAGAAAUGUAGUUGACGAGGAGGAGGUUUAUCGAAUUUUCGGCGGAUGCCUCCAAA

# Variants of: B1
# ASSAY_NAME: self-cleavage kobs at 10000 uM GlcN6P; higher = faster cleavage; RNA array
# CONDITION_LABEL: with glucosamine-6-phosphate
This sample holds only a part of the variants without activity.

{"VARIANT_ID": "U49A U54C C67G", "self-cleavage kobs at 10000 uM GlcN6P": "< 1e-05 s⁻¹"}
{"VARIANT_ID": "G32A A64U C68U", "self-cleavage kobs at 10000 uM GlcN6P": "< 1e-05 s⁻¹"}
{"VARIANT_ID": "G60U C68U", "self-cleavage kobs at 10000 uM GlcN6P": "< 1e-05 s⁻¹"}
{"VARIANT_ID": "C16U G29C G35U A39G", "self-cleavage kobs at 10000 uM GlcN6P": "< 1e-05 s⁻¹"}
{"VARIANT_ID": "G7C A64U", "self-cleavage kobs at 10000 uM GlcN6P": "< 1e-05 s⁻¹"}
{"VARIANT_ID": "U31A C61G", "self-cleavage kobs at 10000 uM GlcN6P": "< 1e-05 s⁻¹"}
{"VARIANT_ID": "C8G C10U", "self-cleavage kobs at 10000 uM GlcN6P": "< 1e-05 s⁻¹"}
{"VARIANT_ID": "G7U C16G", "self-cleavage kobs at 10000 uM GlcN6P": "< 1e-05 s⁻¹"}
{"VARIANT_ID": "A14C G38C", "self-cleavage kobs at 10000 uM GlcN6P": "< 1e-05 s⁻¹"}
{"VARIANT_ID": "G32U C50U", "self-cleavage kobs at 10000 uM GlcN6P": "< 1e-05 s⁻¹"}
{"VARIANT_ID": "G40A C50U", "self-cleavage kobs at 10000 uM GlcN6P": "< 1e-05 s⁻¹"}
{"VARIANT_ID": "C34U U56C", "self-cleavage kobs at 10000 uM GlcN6P": "< 1e-05 s⁻¹"}
{"VARIANT_ID": "A14C C34A A48C C61G", "self-cleavage kobs at 10000 uM GlcN6P": "< 1e-05 s⁻¹"}

Every entry's value here was drawn from the supplement of paper PMC7125110.
